assay: folding stability dG unfold from chymotrypsin proteolysis; higher = more stable
Recorded measurements of folding stability dG unfold, one per entry
reported.property: folding stability dG unfold

sequence.code	reported.property	result
SAGGSAGGSMTPVPGGYVITIETPAPGGVPLATLYVPSREEAEAAIAEIPAEDLTAVTVEPVLLSAGGSAGG [r6_705_JUSTAS]	folding stability dG unfold	0.566 kcal/mol
SAGGSAMTLRLELRVRLQVFNEDGELLGERELDIEIELEGEPLEVPPPPEIDPEEAARLLGLDPDGSAGGSA [r15_572_TrMRF]	folding stability dG unfold	2.84 kcal/mol
SAGGMPKIVEIEILSEEYDPSTGVRTYTAKVTYPDGTEEVVTIPVDLTDGNATEEEVKKRVEELVLESAGGS [r16_221_JUSTAS]	folding stability dG unfold	3.66 kcal/mol
SAGGSAGGSMVVVRRLPDGRYLLEVRLEGESLRFEVDGEEEVERFAKALEELTGRPVEVLTVESAGGSAGGS [r12_783_TrMRF]	folding stability dG unfold	3.84 kcal/mol
SAGSASSIKPISSTLDVRTDPETGKPVKATVYTYVLPSDGSSKQVPVPLSKKEPINLSPSDSYVTETRESAG [r5_950_JUSTAS]	folding stability dG unfold	-0.274 kcal/mol
SAGGSMVKLKVTSVSREGNYLTVTAELGNLIVEIRFDEGTDRFEVKVSEKPLVLGEEEIEELAKASSAGGSA [r2_482_TrMRF]	folding stability dG unfold	2.38 kcal/mol
SAGTIAKEIAEKLGLPGLKVKDVKFEPDPDGPIKEIEITVEFPNGRYWKIDIRYDPGNIVIDIEPVPPSAGG [r19_392_TrROS]	folding stability dG unfold	2.29 kcal/mol
